Values from patent US20210395344A1

# Assayed Target: T1, SARS-CoV-2 Spike Glycoprotein S1 (subunit 1) (SARS-CoV-2, UniProt P0DTC2 16-685)
# T1 construct: also called S1 Monomer; SARS-CoV-2 S1
# Test Name: column Fc/S1 (format not explained)
Result Type: Kd (nM)

1. 1-31 (antibody, V domains shown) VH: EVQLLESGGGLVQPGGSLRLSCAASGFTFSSYAMNWVRQAPGKGLEWVSAISGSGGSTFYADSVKGRFTISRDNSKNTLYLQMNSLRAEDTAVYYCTRPPYGDYGDYWGQGTLVTVSS VL: QSALTQPASVSGSPGQSITISCTGTSSDVGKYNLVSWYQQHPGKAPKLMIYEGSQRPSGVSNRFSGSKSGNTASLTISGLQAEDEADYYCCSYAGSRTPVVFGGGTKLTVL	17.5
2. 1-12 (antibody, V domains shown) VH: EVQLLESGGGLVQPGGSLRLSCAASGITFSSYAMSWVRQAPGKGLEWVSGISGSGGSTYYADSVKGRFTISRDNSKNTLYLQMNSLRAEDTAVYYCAKHGSGTIFGVVIAKYYFDYWGQGTLVTVSS VL: QSALTQPASVSGSPGQSITISCTGTSSDVGHYNLVSWYQQHPGKAPKLMIYEGTKRPSGVSNRFSGSKSGNTASLTISGLQAEDEADYYCCSYAGSSSFVVFGGGTKLTVL	6.1
3. 1-32 (antibody, V domains shown) VH: EVQLLESGGGLVQPGGSLRLSCAASGFTFSSYAMYWVRQAPGKGLEWVSAISGSGGSTFYADSVKGRFTISRDNSKNTLYLQMNSLRAEDTAVYYCTRPPYGDYGDYWGQGTLVTVSS VL: QSALTQPASVSGSPGQSITISCTGTSSDVGGYNLVSWYQQHPGKAPKLMIYEGNKRPSGVSNRFSGSKSGNTASLTISGLQAEDEADYYCCSYAGSSTFPVVFGGGTKLTVL	2980
4. 1-4 (antibody, V domains shown) VH: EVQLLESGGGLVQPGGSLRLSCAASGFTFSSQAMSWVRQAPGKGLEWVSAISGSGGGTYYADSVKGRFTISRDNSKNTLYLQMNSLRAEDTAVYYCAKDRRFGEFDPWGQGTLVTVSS VL: QSALTQPASVSGSPGQSITISCTGTSSDVGTYNLVSWYQQHPGKAPKLMIYEGSQRPSGVSNRFSGSKSGNTASLTISGLQAEDEADYYCCSYAGSSSFVVFGGGTKLTVL	25.5
